Tested on: Escherichia coli TOP10;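 also: peptides expressed intracellularly from a pBAD plasmid library in pooled LB shake-flask culture, induced with 0.3% L-arabinose, DNA abundance read by NGS, three biological replicates, DESeq2 with apeglm shrinkage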
Assay: shrunken log2 fold change of peptide-encoding DNA abundance (4.5 h post-induction vs induction); higher = less antimicrobial activity (less host growth inhibition)
Conditions: time post-induction: 4.5 h; library: site-saturation at positions 5, 18, 19, 20

seq.string	shrunken log2 fold change
RRIRYRPPRLPRPRPRPYWSPRP	-0.0274
RRIRWRPPRLPRPRPRPANDPRP	-0.0438
RRIRKRPPRLPRPRPRPAWRPRP	1.18
RRIRWRPPRLPRPRPRPTEDPRP	0.0661
RRIRLRPPRLPRPRPRPFNVPRP	-0.485
RRIRCRPPRLPRPRPRPRAFPRP	-0.0361
RRIRWRPPRLPRPRPRPWMSPRP	-0.353
RRIRWRPPRLPRPRPRPYNHPRP	-1.43
RRIRNRPPRLPRPRPRPCHLPRP	-0.146
RRIRHRPPRLPRPRPRPVFDPRP	-0.0994
RRIRDRPPRLPRPRPRPWHDPRP	0.0315
RRIRMRPPRLPRPRPRPVNLPRP	-0.0198
RRIRGRPPRLPRPRPRPPTMPRP	0.429
RRIRQRPPRLPRPRPRPWSRPRP	0.00812
RRIRKRPPRLPRPRPRPMGYPRP	-0.0267
RRIRGRPPRLPRPRPRPRTNPRP	0.588
RRIRMRPPRLPRPRPRPQYMPRP	-0.969
RRIRYRPPRLPRPRPRPKHYPRP	-0.895
RRIRYRPPRLPRPRPRPVKMPRP	-0.392
RRIRKRPPRLPRPRPRPFNPPRP	-0.0407
RRIRLRPPRLPRPRPRPRECPRP	-0.104
RRIRDRPPRLPRPRPRPPMRPRP	0.759
RRIRNRPPRLPRPRPRPDALPRP	0.0233
RRIRKRPPRLPRPRPRPKWPPRP	-0.031
RRIRKRPPRLPRPRPRPILEPRP	0.261
RRIRNRPPRLPRPRPRPAYLPRP	-0.284
RRIRTRPPRLPRPRPRPYTMPRP	-0.232
RRIRERPPRLPRPRPRPNMLPRP	-0.753
RRIRDRPPRLPRPRPRPDDIPRP	-0.00277
RRIRMRPPRLPRPRPRPWALPRP	0.0536
RRIRARPPRLPRPRPRPRYDPRP	0.166
RRIRRRPPRLPRPRPRPDMKPRP	-0.124
RRIRRRPPRLPRPRPRPNGIPRP	-0.0555
RRIRFRPPRLPRPRPRPERTPRP	-0.0923
RRIRGRPPRLPRPRPRPACWPRP	1.08
RRIRMRPPRLPRPRPRPENQPRP	1.86
RRIRTRPPRLPRPRPRPVWPPRP	0.332
RRIRFRPPRLPRPRPRPKMIPRP	-0.618
RRIRRRPPRLPRPRPRPNGTPRP	0.219
RRIRTRPPRLPRPRPRPSYEPRP	-0.352
RRIRVRPPRLPRPRPRPHWWPRP	0.355
RRIRWRPPRLPRPRPRPAKPPRP	0.0169
RRIRGRPPRLPRPRPRPAHGPRP	0.204
RRIRDRPPRLPRPRPRPDPRPRP	0.0663
RRIRQRPPRLPRPRPRPIMDPRP	-0.179
RRIRVRPPRLPRPRPRPSMPPRP	-0.343
RRIRKRPPRLPRPRPRPFYDPRP	0.0223
RRIRERPPRLPRPRPRPVCTPRP	-0.147
RRIRFRPPRLPRPRPRPTKFPRP	-0.355
RRIRKRPPRLPRPRPRPSNMPRP	-0.327
RRIRERPPRLPRPRPRPPQTPRP	0.223
RRIRNRPPRLPRPRPRPYCLPRP	-0.228
RRIRSRPPRLPRPRPRPCFYPRP	-0.39
RRIRDRPPRLPRPRPRPSEHPRP	0.12
RRIRSRPPRLPRPRPRPEHEPRP	-0.182
RRIRIRPPRLPRPRPRPECDPRP	0.0126
RRIRSRPPRLPRPRPRPKKFPRP	-0.222
RRIRVRPPRLPRPRPRPYMHPRP	-0.3
RRIRHRPPRLPRPRPRPCSAPRP	-0.473
RRIRDRPPRLPRPRPRPCIWPRP	0.033
RRIRIRPPRLPRPRPRPCFKPRP	-1.04
RRIRARPPRLPRPRPRPRFMPRP	0.0944
RRIRNRPPRLPRPRPRPYEAPRP	-0.143
